# System: PC-3 prostate
# assay.notes: NCI-60 one-dose screen, 48 h
# experimental.setup: 10 µM unless noted
Compounds without any hit were thinned out: in the full panel of roughly 83,000, 20% have a hit. The source made the active and inactive calls. How the source made its calls: active means growth percent below 10; inactive means the rest.
Possible outcomes: 1 = active, 0 = inactive

| molecule | group.label |
| --- | --- |
| C#CC[C@@H]1C[C@]2(C)[C@H]3CC=C4[C@H]5[C@@H](C)[C@H](C)CC[C@]5(C(=O)NCCCN5CCN(CCCN)CC5)CC[C@@]4(C)[C@]3(C)CC[C@H]2C(C)(C)[C@H]1OC(C)=O | 0 |
| C/C(=N\NC(=S)N1CCCCC1)c1ccccn1 | 1 |
| COc1cc2c(cc1I)-c1c(cc(OC)c(OC)c1OC)CC[C@@H]2NC(C)=O | 0 |
| CCN(C)CCCOc1ccc(/C(=C(\C)Cc2cccc(OC)c2)c2ccc(OC(C)=O)cc2)cc1 | 0 |
| O=C(c1ccccc1)N(CCCCl)C(=O)N(CCCCl)C(=O)c1ccccc1 | 0 |
| O=C(CCCCCCc1nc2ccc(Br)cc2[nH]1)NO | 0 |
| CCc1ccc(Nc2cc(C)c3ccc(O)cc3n2)cc1 | 0 |
| CC1=C(O)C(=O)C(c2c(C)cc(C)c(Br)c2C)=C(O)C1=O | 0 |
| COc1ccc([C@@H]2[C@@H](Oc3ccccc3)C(=O)N2c2cc(OC)c(OC)c(OC)c2)cc1F | 0 |
| CC(C)CC(NC(=O)OCC1c2ccccc2-c2ccccc21)C(=O)O (centres undefined) | 0 |
| O=C(CN1CCN(c2ccccc2)CC1)N1CCN(c2nnc(-c3ccc(Cl)cc3)c(-c3ccc(Cl)cc3)n2)CC1 | 0 |
| COc1ccc(/C=c2\c(=O)n(-c3ccccc3)c3nn4c(=O)c(=O)[nH]nc4n23)cc1 | 0 |
| CCSc1ccc([C@@H]2[C@@H](O)C(=O)N2c2cc(OC)c(OC)c(OC)c2)cc1 | 0 |
| C=CCn1c(SCC(=O)Nc2ccc(C(=O)/C=C/c3ccc(Cl)cc3)cc2)nnc1-c1ccc(Cl)cc1 | 0 |
| COc1ccc2[nH]c(C(=O)OCc3ccc4c(Br)cc(Br)c(O)c4n3)cc2c1 | 1 |
| COc1cc(/C=C/C(=O)c2ccc(NC(=O)CSc3nnc(-c4ccc(Cl)cc4)n3-c3ccccc3)cc2)cc(OC)c1OC | 0 |
| CN1CCN(Cc2ccc(NC(=O)c3cncc(C#Cc4ncc5cnccn45)c3)cc2C(F)(F)F)CC1 | 0 |
| O=C(CSc1ccc(Cl)cc1)Nc1ccc(-c2nc3ccccc3s2)c(Cl)c1 | 0 |
| O=C(Nc1ccc(OS(=O)(=O)c2ccc(F)cc2)cc1)C12CC3CC(CC(C3)C1)C2 | 0 |
| O=Cc1ccc2nc(C(Cl)(Cl)Cl)ccc2c1 | 0 |
| O=C(O)Cn1ccc2ccccc21 | 0 |
| CC(=O)N1N=C(c2ccc(C)cc2)CC1c1cn(-c2ccccc2)nc1-c1cccc(Nc2ccnc3cc(Cl)ccc23)c1 (centres undefined) | 0 |
| Nc1c(C(=O)Nc2cccc(Cl)c2)sc2ncc(Br)cc12 | 0 |
| CN1CCN(Cc2ccc(NC(=O)c3cccc(C#Cc4cnc(N)c5ncccc45)c3F)cc2C(F)(F)F)CC1 | 0 |
| COc1ccc(/C=C2\N=C(c3cccnc3)N(c3ccccc3)NC2=O)cc1 | 0 |
| CC(C)[C@H](CN)NC[C@H](C)NS(=O)(=O)c1ccc(C(C)(C)C)cc1 | 0 |
| c1ccc2c(c1)cnc1ccccc12 | 0 |
| Cc1nc2ccc(Nc3nc(NCCN4CCOCC4)nc(Nc4ccc(F)cc4)n3)cc2n1Cc1ccccc1 | 0 |
| Fc1cnccc1-c1nc2ccc3[nH]ncc3c2c2c1CCCC2 | 0 |
| Nc1ccc(C(OC(=O)c2cc3ccccc3c(Cc3c(O)c(C(=O)OC(c4ccc(N)cc4)(c4ccc(N)cc4)c4ccc(N)cc4)cc4ccccc34)c2O)(c2ccc(N)cc2)c2ccc(N)cc2)cc1 | 1 |
| CNC(=O)c1ccccc1Sc1ccc2c(/C=C/c3ccccn3)n[nH]c2c1 | 0 |
| C#CC[C@@H]1C[C@]2(C)[C@H]3CC[C@@H]4[C@H]5C(C(=C)C)CC[C@]5(C(=O)NCCCN5CCN(CCCN)CC5)CC[C@@]4(C)[C@]3(C)CC[C@H]2C(C)(C)[C@H]1OC(C)=O (some centres undefined) | 1 |
| CCCCCCCCCCCCCCCC1=NCC[N+]1(CCO)CCO | 0 |
| CC(=O)c1c(C)nc(-c2cc(C)cc(Cl)c2)nc1-c1cccc(Oc2ccccc2)c1 | 0 |
| CCn1c(CN2CCN(Cc3ccccc3)CC2)nc2cc(NC(=O)c3cccs3)ccc21 | 1 |
| O=[N+]([O-])c1cccc([I+]c2ccccc2)c1 | 0 |
| CNC(=O)c1cc(Oc2ccc(NC(=O)c3nc(S(C)(=O)=O)n(C)c3-c3ccc(F)cc3)cc2)ccn1 | 0 |
| F | 0 |
| COC(=O)C(C)NC1=C(Cl)C(=O)C(NC(C)C(=O)OC)=C(Cl)C1=O (centres undefined) | 0 |

* * *

# Test system: K-562 leukemia
# assay.notes: NCI-60 one-dose screen, 48 h
# experimental.setup: 10 µM unless noted
The panel holds about 83,000 compounds, 20% with a hit somewhere; the sample as a whole holds those more often. Activity calls are given as the source filed them. How the source made its calls: active means growth percent below 10; inactive means the rest.
Outcomes: active, inactive

| molecule | assayed.target | group.label |
| --- | --- | --- |
| COc1ccc(C(=O)c2c(N)nc3n2CCCC3)cc1OC | K-562 leukemia | inactive |
| O=C(O)c1cn(-c2ccccc2)nc1-c1ccc(O)cc1 | K-562 leukemia | inactive |
| CC(=O)O[C@H]1[C@H](CC#CC#CC[C@@H]2C[C@]3(C)[C@H]4CC=C5[C@H]6[C@@H](C)[C@H](C)CC[C@]6(C(=O)NCCN(CCN)CCN)CC[C@@]5(C)[C@]4(C)CC[C@H]3C(C)(C)[C@H]2OC(C)=O)C[C@]2(C)[C@H]3CC=C4[C@H]5[C@@H](C)[C@H](C)CC[C@]5(C(=O)NCCN(CCN)CCN)CC[C@@]4(C)[C@]3(C)CC[C@H]2C1(C)C | K-562 leukemia | inactive |
| COc1ccc2[nH]c(O)c(/C=c3/ccc4c(c3)N=C(c3ccc(C(F)(F)F)cc3)N=4)c2c1 | K-562 leukemia | inactive |
| C#CC[C@@H]1C[C@]2(C)[C@H]3CC[C@@H]4[C@H]5C(C(=C)C)CC[C@]5(C(=O)NCCCCCCCCN)CC[C@@]4(C)[C@]3(C)CC[C@H]2C(C)(C)[C@H]1OC(C)=O (some centres not stated) | K-562 leukemia | active |
| C/C(=N\NC(=S)N1CCCCC1)c1ccccn1 | K-562 leukemia | active |
| Cc1cc(C)c(C#N)c(SCC(=O)c2sc3c(C#N)c(C)cc(C)[n+]3c2[O-])n1 | K-562 leukemia | active |

* * *

# Test system: SK-OV-3 ovarian
# assay.notes: NCI-60 one-dose screen, 48 h (100 = growth as untreated, 0 = no growth, -100 = all killed)
# experimental.setup: 10 µM unless noted
This is part of a sample that, as a whole, favours compounds with a hit. Of some 83,000 tested, about 20% had one in any assay.
experimental.readout: growth (%)

| molecule | measured |
| --- | --- |
| O=C(Oc1c(Cl)c(Cl)c(Cl)c(Cl)c1Cl)C1CCCN1C(=O)OCc1ccccc1 (stereo not given) | 46.4 |
| COc1ccc(C2CC(c3cccc(Nc4ccnc5cc(Cl)ccc45)c3)=NN2c2ccccc2)cc1 (stereo not given) | 80.8 |
| C[C@@H](C[C@H](CC1CC1)c1ccccc1)c1ccc2ccccc2c1 | 117 |
| COc1ccc(C2C3=C(COC3=O)N(CCO)c3cc(OC)c(OC)cc32)cc1 (stereo not given) | 106 |
| Cc1ccccc1CNc1ncnc2[nH]ncc12 | 100 |
| Cc1ccc2cc3c(NC(=O)c4cccnc4)nn(C)c3nc2c1 | 94.2 |
| CCCCN(CCCC)CCCN=c1nc2c(c(N)n1-c1ccccc1)c(=S)n(-c1ccccc1)c(=S)n2-c1ccccc1 | -86.5 |
| COC(=O)/C=C/c1cc(OC(C)=O)c2c(c1)[C@@H](C(=O)OC)[C@H](c1ccc(OC(C)=O)c(OC(C)=O)c1)O2 | 36.4 |
| CNCc1ccccc1CN(CC(=O)Nc1ccc2c(c1)CC1(C2)C(=O)Nc2ncccc21)C(=O)C(C)(C)C (stereo not given) | 108 |
| C/C(=N\NC(=S)Nc1ccccc1)c1ccccn1 | 40 |
| COc1ccc2cc(-c3nc(C)c(C(C)=O)c(-c4ccc(C)cc4)n3)ccc2c1 | 97.5 |
| COc1ccc(C(=O)c2c(N)nc3n2CCCC3)cc1OC | 105 |
| CNCCCNc1ccnc2cc(Cl)ccc12 | 5.19 |
| CCc1ccc(Nc2ncnc3c2cnn3-c2cccc(Br)c2)cc1 | 104 |
| N=C(N)c1ccc(-c2ccc(-c3cc(Cl)cc(Cl)c3)o2)nc1 | -86.5 |
| CC1=NN(c2cccc(S(N)(=O)=O)c2)C(=O)C1 | 91.3 |
| C=CCn1c(SCC(=O)Nc2ccc(/C(C)=N\O)cc2)nnc1-c1cc(-c2ccc(Cl)cc2)nc2ccccc12 | 52.6 |
| COc1ccccc1/C=N\NC(=S)Nc1ccc(F)cc1 | 89.2 |
| CCN(CC)CCCC(C)Nc1cnc(C(=O)Nc2ccc(Cl)c3cccnc23)cn1 (stereo not given) | 79.5 |
| C#CC[C@@H]1C[C@]2(C)[C@H]3CC[C@@H]4[C@H]5C(C(=C)C)CC[C@]5(C(=O)NCCCN5CCN(CCCN)CC5)CC[C@@]4(C)[C@]3(C)CC[C@H]2C(C)(C)[C@H]1OC(C)=O (stereo not given in full) | 108 |

meta.source: PubChem BioAssay (NCI)
